tested on: B6C3F1 mice, B16 melanoma ip, median survival T/C; test: NCI In Vivo Anticancer Drug Screen. Data for tumor model B16 Melanoma (intraperitoneal) in B6C3F1 mice; details: endpoint: median survival time; dose: 30.0 mg/kg/injection; schedule: Q01DX009 (ip); vehicle: saline with Tween-80
Inconclusive results and toxic doses are left out. Rule for the calls: active = survival T/C of 150% or more; inactive = T/C below 125% in these data.
Possible outcomes: active, inactive

COMPOUND: C=C1C(=O)OC2/C=C(\C)CC(O)/C=C(/CO)CC(OC(=O)/C(C)=C/C)C12 (centres undefined)
QUALITATIVE LABEL: inactive
//
COMPOUND: CN(C)CCNc1ccc(CO)c2sc3ccc(O)cc3c(=O)c12
QUALITATIVE LABEL: active
//
COMPOUND: COc1ccc(O)cc1
QUALITATIVE LABEL: inactive
//
COMPOUND: S=c1sc2ccccc2n1CN1CCOCC1
QUALITATIVE LABEL: inactive

====

System: B6C3F1 mice, B16 melanoma ip, median survival T/C
Experiment: NCI In Vivo Anticancer Drug Screen. Data for tumor model B16 Melanoma (intraperitoneal) in B6C3F1 mice
Settings: endpoint: median survival time; dose: 200.0 mg/kg/injection; schedule: Q01DX009 (ip); vehicle: saline
Description: The antitumor activity of compounds was measured in mice bearing transplantable tumors. Survival or tumor size were measured and the results are expressed as the measurement made in the treated group (T) divided by the measurement made in the vehicle treated control group (C). The tumor model used in this assay is B16 Melanoma (intraperitoneal) in B6C3F1 mice
Inconclusive results and toxic doses are left out. How the source made its calls: active means survival T/C of 150% or more; inactive means T/C below 125% in these data.
Outcomes: active, inactive

COMPOUND: CCCCCCCCCCCCCCCCCC1=NC(C)CC(C)(C)O1 (centres undefined)
QUALITATIVE LABEL: inactive

COMPOUND: CCN(CC)C(=S)S
QUALITATIVE LABEL: inactive

COMPOUND: NC(CO)(CO)CO
QUALITATIVE LABEL: inactive

COMPOUND: Cc1ccccc1N(CC1CO1)CC1CO1 (centres undefined)
QUALITATIVE LABEL: inactive

COMPOUND: OCCCN1CCCCC1CO (centres undefined)
QUALITATIVE LABEL: inactive

COMPOUND: Cn1cnc([N+](=O)[O-])c1SCC(=O)O
QUALITATIVE LABEL: inactive

COMPOUND: O=S(O)O
QUALITATIVE LABEL: inactive

COMPOUND: C(COCCOCC1CO1)OCCOCC1CO1 (centres undefined)
QUALITATIVE LABEL: active

COMPOUND: NC(CCCCNC=O)C(=O)O (centres undefined)
QUALITATIVE LABEL: inactive

COMPOUND: Cc1ccccc1CN1C2=NCCN2C(=O)C2=C1CCN(S(=O)(=O)c1ccc(Cl)c(S(N)(=O)=O)c1)C2
QUALITATIVE LABEL: inactive

COMPOUND: CN(C)CCc1ccc(O)cc1
QUALITATIVE LABEL: inactive

COMPOUND: O=C(O)CP(=O)(O)O
QUALITATIVE LABEL: active

COMPOUND: CC(O)C(NC(=O)OC(C)(C)C)C(=O)O (centres undefined)
QUALITATIVE LABEL: inactive

COMPOUND: CN(C)CCC(=O)C(=Cc1ccc(O)cc1)C(=O)CCN(C)C
QUALITATIVE LABEL: inactive

====

T/C by entry:
Test system: B6C3F1 mice, B16 melanoma ip, median survival T/C
Test: NCI In Vivo Anticancer Drug Screen. Data for tumor model B16 Melanoma (intraperitoneal) in B6C3F1 mice
Conditions: endpoint: median survival time; dose: 100.0 mg/kg/injection; schedule: Q01DX009 (ip); vehicle: distilled water + Tween-80; higher = longer survival
Description: The antitumor activity of compounds was measured in mice bearing transplantable tumors. Survival or tumor size were measured and the results are expressed as the measurement made in the treated group (T) divided by the measurement made in the vehicle treated control group (C). The tumor model used in this assay is B16 Melanoma (intraperitoneal) in B6C3F1 mice
Toxic doses and inconclusive results are not listed.

SMILES REPRESENTATION: CCc1nc(N)nc(N)c1-c1ccc(Cl)c(N=[N+]=[N-])c1
T/C: 122 % of control
//
SMILES REPRESENTATION: Nc1cc(Cl)c2[nH]cnc2n1
T/C: 96 % of control
//
SMILES REPRESENTATION: CNC(=O)OCc1c(COC(=O)NC)c(-c2ccc(Cl)c(Cl)c2)n2c1Cc1ccccc1C2
T/C: 92 % of control
//
SMILES REPRESENTATION: OCc1c(CO)c(-c2ccc(Cl)cc2)n2c1CCC2
T/C: 121 % of control
//
SMILES REPRESENTATION: ClC(Cl)(Cl)C1=NCc2nnn(Cc3ccccc3)c2N1
T/C: 91 % of control
//
SMILES REPRESENTATION: O=C(O)CCCCCCCC(=O)O
T/C: 91 % of control

====

Collected T/C values appear next to each entry.
tested on: B6C3F1 mice, B16 melanoma ip, median survival T/C; assay: NCI In Vivo Anticancer Drug Screen. Data for tumor model B16 Melanoma (intraperitoneal) in B6C3F1 mice; details: endpoint: median survival time; dose: 0.5 mg/kg/injection; schedule: Q01DX009 (ip); vehicle: saline with Tween-80; higher = longer survival
Inconclusive results and toxic doses are left out.
TEST READOUT: T/C

COMPOUND: CCOC(=O)Nc1cc2c(c(N)n1)N=C(c1ccc3ccccc3c1)CN2
RESULT: 97 % of control
//
COMPOUND: COC(C(=O)C(O)C(C)O)C1CC2C=C3C=C(OC4CC(OC5CC(O)C(OC)C(C)O5)C(OC(C)=O)C(C)O4)C(C)C(=O)C3=C(O)C2=C(O)C1OC1CC(OC2CC(OC3CC(C)(O)C(O)C(C)O3)C(O)C(C)O2)C(O)C(C)O1 (centres undefined)
RESULT: 120 % of control
//
COMPOUND: CO[C@@]12[C@H](COC(N)=O)C3=C(C(=O)C(C)=C(N)C3=O)N1C[C@@H]1N[C@@H]12
RESULT: 166 % of control
//
COMPOUND: COc1ccc(CC2C(=O)NC(C)C(=O)N(C)C3C(=O)N(C)C(Cc4ccc(O)c(c4)Oc4ccc(cc4)C3O)C(=O)NC(C)C(=O)NC(C)C(=O)N2C)cc1 (centres undefined)
RESULT: 174 % of control

====

tested on: B6C3F1 mice, B16 melanoma ip, median survival T/C; test: NCI In Vivo Anticancer Drug Screen. Data for tumor model B16 Melanoma (intraperitoneal) in B6C3F1 mice; conditions: endpoint: median survival time; dose: 0.25 mg/kg/injection; schedule: Q01DX009 (ip); vehicle: Klucel (hydroxypropylcellulose) (HPC); higher = longer survival
Toxic doses and inconclusive results are not listed.

MOLECULE: C[n+]1c(/C=C\C=C\N2CCCCC2)sc2ccccc21
T/C: 95 % of control

MOLECULE: C=C(OP(=O)(OC)OC)Sc1ccccc1C
T/C: 104 % of control

MOLECULE: CC(=O)OC1C2CCC3C(C)(O)C4CC(O)C(C)(C)C4(O)C(O)CC13CC2(C)O (centres undefined)
T/C: 111 % of control

MOLECULE: CC[C@]1(O)C[C@H](OC2CC(N(C)C)C(OC3CC(O)C(O)C(C)O3)C(C)O2)c2c(cc3c(c2O)C(=O)c2c(O)ccc(O)c2C3=O)[C@H]1C(=O)OC (some centres undefined)
T/C: 115 % of control

====

test system: B6C3F1 mice, B16 melanoma ip, median survival T/C; experiment: NCI In Vivo Anticancer Drug Screen. Data for tumor model B16 Melanoma (intraperitoneal) in B6C3F1 mice; settings: endpoint: median survival time; dose: 0.78 mg/kg/injection; schedule: Q01DX009 (ip); vehicle: saline with Tween-80; higher = longer survival
Toxic doses and inconclusive results are not listed.
Below, each of the molecules is paired with its reported T/C value.

MOLECULE: CC(=O)Nc1ccc(Nc2ccc(C(=C3C=CC(=[N+](C)CCC#N)C=C3)c3ccc(N(C)CCC#N)cc3)cc2)cc1
T/C: 105 % of control
//
MOLECULE: CC(C)(C)N1CC1CNC(=O)C(=O)NCC1CN1C(C)(C)C (centres undefined)
T/C: 99 % of control
//
MOLECULE: Cc1cc(Cc2cc(C)c(C)c(C)c2C)c(C)c(C)c1C
T/C: 89 % of control
//
MOLECULE: NC(=O)/C=C/C(=O)c1c(Cl)cccc1Cl
T/C: 100 % of control

====

tested on: B6C3F1 mice, B16 melanoma ip, median survival T/C; assay: NCI In Vivo Anticancer Drug Screen. Data for tumor model B16 Melanoma (intraperitoneal) in B6C3F1 mice; conditions: endpoint: median survival time; dose: 6.0 mg/kg/injection; schedule: Q01DX009 (ip); vehicle: saline with Tween-80; higher = longer survival
Inconclusive results and toxic doses are left out.
TEST READOUT: T/C

MOLECULE: CC(C)N1C(=O)N(Cl)C2C1N(Cl)C(=O)N2Cl (stereo unspecified)
RESULT: 98 % of control
--
MOLECULE: CCCCCC1c2cc(O)ccc2OC1N1CCOCC1 (stereo unspecified)
RESULT: 90 % of control
--
MOLECULE: COc1ccc(S(=O)(=O)N=N/C=C2\C=CC=CN2O)cc1OC
RESULT: 123 % of control
--
MOLECULE: Cc1cnc(/C=N\NC(N)=S)c2cccc(N)c12
RESULT: 116 % of control
--
MOLECULE: CC(C)c1cc(C(=O)O)c(O)c(C(C)C)c1.CC(C)c1cc(C(=O)O)c(O)c(C(C)C)c1.[Cu]
RESULT: 97 % of control
--
MOLECULE: COc1cc(/C=C/[N+](=O)[O-])cc(Br)c1OC
RESULT: 97 % of control
